experimentalSystem: pooled human IgG (human IgG1,2,3 and 4)
parameterMeasured: Enzyme Activity Endpoint Assay: Fc (ng/µL)

protein="PRT-458 (protein) MVTSVWTKGVTPPTDFIKGEDVFHAPYKAGQGWYDITKTFNGKDDLLCGAATAGNMLHWWFDQNKDQIERYLKEHPEKQKINFNGEQMFDVKEAIDTKDSQTDSKLFEYFKEKAFPYLSTKHLGVFPDHVLDMFINGYRLSLTNHGPTPVKEGSKDPRGGIFDAVFTRGDQSKLLTSRHDFKEKTLKEISDLIKQELTEGKALGLSHTYANVRINHVINLWGADFDSEGNLKAIYVTDSDSNASIGMKKYFVGVNSAGKVAISAKEIKEDNIGAQVLGLFTLSTGQDIWNQTNLEHHHHHH" unitname=ng/µL measurement=224
protein="PRT-476 (protein) MVTSVWTKGVTPPTNFTYGEDVLHAPYVANQGWYDITKAFDGGDDLLCGAATAGNMLHWWFDQNKEQIENYLKKHPEKQKINFNGEQMFDVKEAIDTKDSQTNSELFNYFKEKAFPYLSTKHLGVFPDHVIDMFINGYRLSLTNHGPTPVKRGSKDPRGGIFDAVFTRGDQSKLLTNRHDLKNKTLKEISDLIKQELTEGKALGISHTYANVRINHVINLWGADFDAEGNLEAIYVTDSDSNASIGMKKYFVGVNSNGKVAISAKEIEEDNIGAQVLGLFTLSTGQDIWNQTNLEHHHHHH" unitname=ng/µL measurement=0
protein="PRT-503 (protein) MITSVWTKGVTPPTDFIKGEDVFHAPYKAGQGWYDITKAFDGGDDLLCGAATAGNMLHWWFDQNKEYIEAYLKKHPEKQKIMFGDQELLDVRKAINTKGSQKNSELFNYFRDKAFPNLSARRLGVMPDLVLDMFINGYYLNVTKTQTTDVNRQEQEKDKRGGIFDAVFGRGDQTKLLTSRHDLKNKGLNEISQLIKQELTEGKALGLSHTYANVRINHVINLWGADFDADGNLEAIYVTDSDSNASIGMKKYFVGVNSAGKVAISAKEIKEDNIGAQVLGLFTLSTGQKIWNKTNLEHHHHHH" unitname=ng/µL measurement=0
protein="PRT-455 (protein) MITSVWTKGVTPPTDFIKGEDVFHAPYKAGQGWYDITKAFDGGDDLLCGAATAGNMLHWWFDQNKDQIEAYLKEHPEKQKINFNGEQMFDVKEAIDTKDDQTNSELFNYFKEKAFPYLSTKHLGVFPDHVLDMFINGYRLSLTNHGPTPVKRQEKDPRGGIFDAVFGRGDQTKLLTSRHDLKNKTLNEISQLIKQELTEGKALALSHTYANVRINHVINLWGADFDAEGNLEAIYVTDSDSNASIGMKKYFVGVNSAGKVAISAKEIEDDNIGAQVLGLFTLSTGQKIWNKTNLEHHHHHH" unitname=ng/µL measurement=416
protein="PRT-89 (protein) MANQEIRYSEVTPYHVTSVWTKGVTPPAKFTQGEDVFHAPYVANQGWYDITKTFNGKDDLLCGAATAGNMLHWWFDQNKEKIEAYLKKHPEKQKIMFGDQELLDVRKVINTKDDQTNSELFNYFRDKAFPGLSARRLGVMPDLVLDMFINGYYLNVYKTQTTDVNRTYQEKDRRGGIFDAVFTRGDQSKLLTSRHDFKEKNLKEISDLIKKELTEGKALGLSHTYANVRINHVINLWGADFDSNGNLKAIYVTDSDSNASIGMKKYFVGVNSAGKVAISAKEIKEDNIGAQVLGLFTLSTGQDIWNQTN" unitname=ng/µL measurement=89
protein="PRT-251 (protein) MVTSVWTKGVTPPTNFTYGEDVLHAPYVANQGWYDITKTFNGKDDLLCGAATAGNMLHWWFDQNKEQIENYLKKHPEKQKINFNGEQMFDVKEAIDTKDSQLDSKLFEYFLEKAFPNLSTKHLGVFPDHVIDMFINGYRLSLLNHGPTPVKRGSKDPRGGIFDAVFTRGDQSKLLTNRHDFKEKTLKEISDLIKQELTEGKALGISHTYANVRINHVINLWGADFDAEGNLEAIAVTDSDSNASIGMKKYFVGVNSSGKVAISAKEIEEDNIGAQVLGLFTLSTGQDIWNQTN" unitname=ng/µL measurement=444
protein="PRT-259 (protein) MVTSVWTKGVTPPTNFTYGEDVLHAPYVANQGWYDITKTFNGKDNLLCGAATAGNMLHWWFDQNKEQIENYLKKHPEKQKINFNGEQLFDVKEAIDTKDSQLDSKLFEYFKEKAFPNLSTKHLGVFPDHVIDMFINGYRLSLLNHGPTPVKRGSKDKRGGIFDAVFTRGVQSKLLTNRHDFKEKTLKEISDLIKQELTEGKALGISHTYANVRINHVINLWGADFDAEGNLEAIYVTDSDTNASIGMKKYFVGVNSSGKVAISAKEIEEDNIGAQVLGLFTLSTGQDIWNQTN" unitname=ng/µL measurement=453
protein="PRT-267 (protein) MVTSVWTKGVTPPTDFIYGEDVLHAPYKAGQGWYDITKTFNGKDDLLCGAATAGNMLHWWFDQNKEQIENYLKKHPEKQKINFNGEQMFDVKEAIDTKDSQLDSKLFDYFKEKAFPNLSTKHLGVFPDHVIDMFINGYRLSLLNHGPTPVKRGSKDPRGGIFDAVFTRGDQSKLLTNRHDLKNKTLKEISDLIKQELTEGKALGISHTYANVRINHVINLWGADFDAEGNLEAIYVTDSDSNPSIGMKKYFVGVNSSGKVAISAKEIEEDNIGAQVLGLFTLSTGQDIWNQTN" unitname=ng/µL measurement=438
